MEASUREMENT TARGET: SARS‐CoV‐2 PL^pro (Severe acute respiratory syndrome coronavirus 2)
PROTOCOL TEXT: biochemical
Format: biochemical
DETAILS: 1 µM
MEASUREMENT KIND: inhibition of SARS-CoV-2 PLpro (%)
Give bare numbers, in %.

Consider the following illustrative entries.
MOLECULE: C1=CCCC=CCC1.Cn1[c-][n+](C)c(-c2ccccc2)c1.[Br-].[Rh+] [Rh‐9]
UNIT DESCRIPTOR: %
REPORTED RESULT: 50

MOLECULE: CC(C)n1cc(-c2ccccc2)[n+](C(C)C)[c]1[Au-][c]1n(C(C)C)c(-c2ccccc2)c[n+]1C(C)C.[I-] [Au‐29]
UNIT DESCRIPTOR: %
REPORTED RESULT: 4

Items follow; give inhibition of SARS-CoV-2 PLpro for each.
1. C1=CCCC=CCC1.Cn1[c-][n+](C)c(-c2ccccc2)c1.[Cl-].[Rh+] [Rh‐8]
2. C1=CCCC=CCC1.CCn1[c-][n+](CC)c(-c2ccc(F)cc2)c1.[Br-].[Rh+] [Rh‐5]

[35, 19]

====

MEASUREMENT TARGET: SARS‐CoV PL^pro (Severe acute respiratory syndrome coronavirus)
PROTOCOL TEXT: biochemical
Type: biochemical
DETAILS: 10 µM
MEASUREMENT KIND: inhibition of SARS-CoV PLpro (%)
One number for each entry, in %.

COMPOUND: C1=CCCC=CCC1.Cn1[c-][n+](C)c(-c2ccc(F)cc2)c1.[Cl-].[Rh+] [Rh‐10]
MEASUREMENT TARGET: SARS‐CoV PL^pro (Severe acute respiratory syndrome coronavirus)
inhibition of SARS-CoV PLpro, %: 90
--
COMPOUND: Cc1ccc(C(C)C)cc1.[Cl-].[Cl-].[Ru+2].[c-]1n(Cc2ccccc2)cc[n+]1Cc1ccccc1 [Ru‐9]
MEASUREMENT TARGET: SARS‐CoV PL^pro (Severe acute respiratory syndrome coronavirus)
inhibition of SARS-CoV PLpro, %: 12
--
COMPOUND: Cc1cn(C/C=C/[c-]2cccc2)c(=O)[nH]c1=O.Cc1cn(C/C=C/[c-]2cccc2)c(=O)[nH]c1=O.[Fe+2] [Fe‐12]
MEASUREMENT TARGET: SARS‐CoV PL^pro (Severe acute respiratory syndrome coronavirus)
inhibition of SARS-CoV PLpro, %: -4
--
COMPOUND: [Cl][Ti]([Cl])([Cl])[Cl] [Ti‐2, titanium(IV) tetrachloride, reference compound]
MEASUREMENT TARGET: SARS‐CoV PL^pro (Severe acute respiratory syndrome coronavirus)
inhibition of SARS-CoV PLpro, %: -7
--
COMPOUND: CCn1[c]([Au-][S]C(=S)N2CCC(C(=O)NC3C(O)OC(CO)C(O)C3O)CC2)[n+](CC)c2ccccc21 (mixture of isomers) [Au‐35]
MEASUREMENT TARGET: SARS‐CoV PL^pro (Severe acute respiratory syndrome coronavirus)
inhibition of SARS-CoV PLpro, %: 85

Items follow; give inhibition of SARS-CoV PLpro for each.
1. Cn1cc(-c2ccccc2)[n+](C)[c]1[Au-][c]1n(C)cc(-c2ccccc2)[n+]1C.[I-] [Au‐24]
2. C[CH2][Hg][S]c1ccccc1C(=O)[O-].[Na+] [Hg‐1, thiomersal, reference compound]

1. 12
2. -63

====

MEASUREMENT TARGET: UniProtKB P0C6X7
PROTOCOL TEXT: biochemical
Format: biochemical
DETAILS: 10 µM
Please provide measured inhibition of SARS-CoV PLpro for the entries that follow.
Answers are plain numbers, in %.

Consider the following illustrative entries.
MOLECULE: C1=CCCC=CCC1.Cn1[c-][n+](C)c(-c2ccccc2)c1.[Cl-].[Rh+] [Rh‐8]
MEASUREMENT TARGET: UniProtKB P0C6X7
inhibition of SARS-CoV PLpro [%]: 93

MOLECULE: C1=CCCC=CCC1.CCn1[c-][n+](CC)c(-c2ccccc2)c1.[Br-].[Rh+] [Rh‐2]
MEASUREMENT TARGET: UniProtKB P0C6X7
inhibition of SARS-CoV PLpro [%]: 67

MOLECULE: CC(C)n1cc(-c2ccccc2)[n+](C(C)C)[c]1[Au-][c]1n(C(C)C)c(-c2ccccc2)c[n+]1C(C)C.[I-] [Au‐29]
MEASUREMENT TARGET: UniProtKB P0C6X7
inhibition of SARS-CoV PLpro [%]: 24

MOLECULE: CC(C)n1cc(-c2ccccc2)n(C(C)C)[c]1=[Au][Cl] [Au‐16]
MEASUREMENT TARGET: UniProtKB P0C6X7
inhibition of SARS-CoV PLpro [%]: 57

MOLECULE: C1=CCCC=CCC1.CCn1[c-][n+](CC)c(-c2ccc(F)cc2)c1.[Cl-].[Rh+] [Rh‐4]
MEASUREMENT TARGET: UniProtKB P0C6X7
inhibition of SARS-CoV PLpro [%]: 72

Items follow; give inhibition of SARS-CoV PLpro for each.
1. Cn1cc(-c2ccccc2)n(C)[c]1=[Au][Cl] [Au‐14]
2. C1=CCCC=CCC1.CCn1[c-][n+](CC)c(-c2ccc(F)cc2)c1.[I-].[Rh+] [Rh‐6]
3. [Cl][Au-][c]1n(Cc2ccccc2)cc(-c2ccccc2)[n+]1Cc1ccccc1 [Au‐17]
4. CC(C)n1[c]([Au-][c]2n(C(C)C)c3ccccc3[n+]2C(C)C)[n+](C(C)C)c2ccccc21.[Br-] [Au‐22]
5. C1=CCCC=CCC1.CCn1[c-][n+](CC)c(-c2ccccc2)c1.[I-].[Rh+] [Rh‐3]
6. O=[N+]([O-])[O-].[Ag+] [Ag‐1, silver nitrate, reference compound]

51
70
-3
39
63
100

====

MEASUREMENT TARGET: SARS‐CoV PL^pro (Severe acute respiratory syndrome coronavirus)
PROTOCOL TEXT: biochemical
Assay type: biochemical

COMPOUND: O=C(NC1C(O)OC(CO)C(O)C1O)C1CCN(C(=S)[S][Au][PH](c2ccccc2)(c2ccccc2)c2ccccc2)CC1 (mixture of isomers)
MEASUREMENT TARGET: SARS‐CoV PL^pro (Severe acute respiratory syndrome coronavirus)
IC50 SARS‐CoV PL^pro: Submicromolar
--
COMPOUND: O=C(O)CC([S-])C(=O)O.[Au+] (stereo not shown) [Au‐2, aurothiomalate, reference compound]
MEASUREMENT TARGET: SARS‐CoV PL^pro (Severe acute respiratory syndrome coronavirus)
IC50 SARS‐CoV PL^pro: Submicromolar
--
COMPOUND: CCn1[c]([Au-][S]C(=S)N2CCC(C(=O)NC3C(O)OC(CO)C(O)C3O)CC2)[n+](CC)c2ccccc21 (mixture of isomers)
MEASUREMENT TARGET: SARS‐CoV PL^pro (Severe acute respiratory syndrome coronavirus)
IC50 SARS‐CoV PL^pro: Submicromolar

====

MEASUREMENT TARGET: SARS‐CoV‐2 PL^pro (Severe acute respiratory syndrome coronavirus 2, UniProt P0DTD1)
PROTOCOL TEXT: biochemical
Assay type: biochemical

COMPOUND: O=C(O)CC([S-])C(=O)O.[Au+] (stereo not shown) [Au‐2, aurothiomalate, reference compound]
IC50 SARS‐CoV‐2 PL^pro: Submicromolar
//
COMPOUND: O=C(NC1C(O)OC(CO)C(O)C1O)C1CCN(C(=S)[S][Au][PH](c2ccccc2)(c2ccccc2)c2ccccc2)CC1 (mixture of isomers)
IC50 SARS‐CoV‐2 PL^pro: Submicromolar
//
COMPOUND: CCn1[c]([Au-][S]C(=S)N2CCC(C(=O)NC3C(O)OC(CO)C(O)C3O)CC2)[n+](CC)c2ccccc21 (mixture of isomers)
IC50 SARS‐CoV‐2 PL^pro: Submicromolar

====

MEASUREMENT TARGET: SARS‐CoV PL^pro (Severe acute respiratory syndrome coronavirus, UniProt P0C6X7)
PROTOCOL TEXT: biochemical
Type: biochemical
MEASUREMENT KIND: activity against SARS‐CoV PL^pro (in words)

COMPOUND: [Cl][Ti]([Cl])([Cl])[Cl] [Ti‐2, titanium(IV) tetrachloride, reference compound]
MEASUREMENT TARGET: SARS‐CoV PL^pro (Severe acute respiratory syndrome coronavirus, UniProt P0C6X7)
REPORTED RESULT: inactive

COMPOUND: [Cl-].[Cl-].[Ti+4].c1cc[cH-]c1.c1cc[cH-]c1 [Ti‐1, titanocene dichloride, reference compound]
MEASUREMENT TARGET: SARS‐CoV PL^pro (Severe acute respiratory syndrome coronavirus, UniProt P0C6X7)
REPORTED RESULT: inactive

COMPOUND: [Cl][Au-][c]1n(Cc2ccccc2)cc(-c2ccccc2)[n+]1Cc1ccccc1
MEASUREMENT TARGET: SARS‐CoV PL^pro (Severe acute respiratory syndrome coronavirus, UniProt P0C6X7)
REPORTED RESULT: inactive
